UniProtKB O95251 measurements of pIC50, listed per entry.
Sequence (O95251 with tags, fused parts or gaps): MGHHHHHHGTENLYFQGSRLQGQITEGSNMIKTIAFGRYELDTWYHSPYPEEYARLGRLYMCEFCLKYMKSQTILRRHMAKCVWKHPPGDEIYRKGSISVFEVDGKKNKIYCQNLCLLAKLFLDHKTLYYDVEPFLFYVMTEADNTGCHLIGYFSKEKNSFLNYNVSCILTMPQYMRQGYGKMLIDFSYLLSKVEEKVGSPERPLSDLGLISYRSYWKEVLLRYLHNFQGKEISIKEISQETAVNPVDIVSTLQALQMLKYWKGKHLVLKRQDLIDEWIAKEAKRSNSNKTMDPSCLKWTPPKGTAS
pIC50: −log10 of the molar value.
Measured Attribute: pIC50

# Molecule, pIC50
data = [
    ("O=S(=O)(Nc1noc2cccc(Cl)c12)c1cccc2cccnc12 [Example 123]", 5.38),
]

I. CCc1ccc(OC)c(S(=O)(=O)Nc2noc3c(Br)cccc23)c1 [Example 137]
II. CCc1ccc(OC)c(S(=O)(=O)Nc2noc3cc(OCC4CC4)ccc23)c1 [Example 134]
Short answer wanted: higher pIC50, I or II ? In your reply, give the label of the chosen option. I

====

TIP60-KAT5 (Homo sapiens, UniProt Q92993) measurements of IC50, listed per entry.
Sequence (Q92993 with tags, fused parts or gaps isoform Q92993-2): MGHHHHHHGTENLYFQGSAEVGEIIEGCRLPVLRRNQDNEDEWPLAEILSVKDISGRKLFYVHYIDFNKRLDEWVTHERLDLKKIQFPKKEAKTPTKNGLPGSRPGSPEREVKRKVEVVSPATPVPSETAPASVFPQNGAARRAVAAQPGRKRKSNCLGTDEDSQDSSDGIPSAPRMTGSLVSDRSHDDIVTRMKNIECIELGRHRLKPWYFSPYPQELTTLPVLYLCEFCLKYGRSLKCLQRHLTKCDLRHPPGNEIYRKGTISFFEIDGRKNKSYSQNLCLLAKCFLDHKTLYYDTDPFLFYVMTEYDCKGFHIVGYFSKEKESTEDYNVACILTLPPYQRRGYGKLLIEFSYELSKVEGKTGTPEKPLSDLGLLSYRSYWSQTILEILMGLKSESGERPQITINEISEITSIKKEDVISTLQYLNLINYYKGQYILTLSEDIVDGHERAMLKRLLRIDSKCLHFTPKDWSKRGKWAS
Measured Attribute: IC50 (µM)

Observe how each entry below is paired with its result.
# Molecule, Result Number
rows = [
    ("O=S(=O)(Nc1noc2cccc(Cl)c12)c1cccc2ccccc12", 27.9),
    ("CC(C)(C)c1ccc(S(=O)(=O)Nc2noc3cccc(Cl)c23)cc1", 120),
    ("COc1cccc(OC)c1S(=O)(=O)Nc1noc2cc(-c3ncco3)cc(OC)c12", 11.5),
]

I. CCc1ccc(OC)c(S(=O)(=O)Nc2noc3ccc(C)c(Cl)c23)c1
II. COCc1cc2onc(NS(=O)(=O)c3c(OC)cccc3OC)c2cc1C
III. COc1cccc(OC)c1S(=O)(=O)Nc1noc2cc(-c3ccncc3)cc(OC)c12
IV. Cc1nnc(-c2cccc(S(=O)(=O)Nc3noc4ccccc34)c2)o1
Please give the order of these molecules when sorted by IC50, largest value leading. I would appreciate it if you listed the labels in the requested order. IV, III, II, I

====

biological target: UniProtKB O95251
pIC50: −log10 of the molar value.
Measured Attribute: pIC50

# Molecule, pIC50
records = [
    ("COc1cccc(OC)c1S(=O)(=O)Nc1noc2cc(-c3ccccn3)c(C)cc12 [Example 241]", 5.60),
]

A. Cc1ccc(Br)cc1S(=O)(=O)Nc1noc2cccc(Cl)c12 [Example 114]
B. COc1cc(C)c(C)cc1S(=O)(=O)Nc1noc2cccc(Cl)c12 [Example 33]
Select the item whose pIC50 value is smaller, choosing between A and B . In your reply, give the label of the chosen option. A
(A: 4.38, B: 4.94)

P. O=S(=O)(Nc1noc2ccccc12)c1cccc(-c2ccccc2)c1 [Example 70]
Q. COc1ccccc1S(=O)(=O)Nc1noc2cc(Br)ccc12 [Example 157]
Select the item whose pIC50 value is smaller, choosing between P and Q . In your reply, give the label of the chosen option. P

====

molecular target: MOZ-KAT6A (Homo sapiens, UniProt Q92794, A567V); assay: Acetyltransferase biochemical assay (AlphaScreen), KAT6A
Sequence (Q92794 with tags, fused parts or gaps A567V): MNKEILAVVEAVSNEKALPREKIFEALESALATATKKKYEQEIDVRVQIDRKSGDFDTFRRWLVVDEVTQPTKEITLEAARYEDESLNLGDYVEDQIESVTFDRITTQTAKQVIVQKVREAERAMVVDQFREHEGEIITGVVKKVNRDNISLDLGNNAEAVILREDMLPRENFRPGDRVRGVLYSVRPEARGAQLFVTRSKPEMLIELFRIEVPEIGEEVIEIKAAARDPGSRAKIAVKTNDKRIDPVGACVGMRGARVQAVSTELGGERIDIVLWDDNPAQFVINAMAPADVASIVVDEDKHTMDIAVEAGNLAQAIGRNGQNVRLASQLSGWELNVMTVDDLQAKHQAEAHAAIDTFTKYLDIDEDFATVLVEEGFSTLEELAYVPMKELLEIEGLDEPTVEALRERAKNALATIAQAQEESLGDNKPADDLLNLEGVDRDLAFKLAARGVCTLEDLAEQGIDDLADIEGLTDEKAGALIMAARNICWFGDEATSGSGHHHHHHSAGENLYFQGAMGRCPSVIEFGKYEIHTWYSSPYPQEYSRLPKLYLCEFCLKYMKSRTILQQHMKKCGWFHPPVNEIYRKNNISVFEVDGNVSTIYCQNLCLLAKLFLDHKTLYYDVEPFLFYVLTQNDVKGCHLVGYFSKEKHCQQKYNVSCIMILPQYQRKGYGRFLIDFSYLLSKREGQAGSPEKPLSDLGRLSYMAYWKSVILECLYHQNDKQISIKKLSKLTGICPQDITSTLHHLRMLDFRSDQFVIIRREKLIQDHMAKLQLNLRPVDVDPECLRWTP
Measured Attribute: IC50 (µM)

Observe how each entry below is paired with its result.
# Molecule, Tested System, IC50, µM
data = [
    ("COc1ccc(C(C)(C)C)cc1S(=O)(=O)Nc1noc2ccccc12 [Example 48]", "MOZ-KAT6A (Homo sapiens, UniProt Q92794, A567V)", 7.41),
    ("CCc1ccc(OC)c(S(=O)(=O)Nc2noc3c(CC)cccc23)c1 [Example 188]", "MOZ-KAT6A (Homo sapiens, UniProt Q92794, A567V)", 9.23),
]

P. COc1cccc(O)c1S(=O)(=O)Nc1noc2cccc(OC)c12 [Example 213]
Q. CCc1ccc(OC)c(S(=O)(=O)Nc2noc3ccc(-c4cncnc4)cc23)c1 [Example 238]
Select the item whose IC50 value is smaller, choosing between P and Q . In your reply, give the label of the chosen option. P
(P: 8.28 µM, Q: 12 µM)

====

target: MOZ-KAT6A (Homo sapiens, UniProt Q92794, A567V); assay: Acetyltransferase biochemical assay (AlphaScreen), KAT6A
pIC50: −log10 of the molar value.
Measured Attribute: pIC50

Observe how each entry below is paired with its result.
# Compound Structure, Tested System, pIC50
data = [
    ("CCc1ccc(OC)c(S(=O)(=O)Nc2noc3cccc(CC)c23)c1", "MOZ-KAT6A (Homo sapiens, UniProt Q92794, A567V)", 6.15),
    ("COc1cccc(OC)c1S(=O)(=O)Nc1noc2c(-c3ccccc3)ccc(OC)c12", "MOZ-KAT6A (Homo sapiens, UniProt Q92794, A567V)", 5.48),
    ("O=S(=O)(Nc1noc2cccc(Cl)c12)c1ccc(S(F)(F)(F)(F)F)cc1", "MOZ-KAT6A (Homo sapiens, UniProt Q92794, A567V)", 5.33),
    ("O=S(=O)(Nc1noc2cccc(Cl)c12)c1ccccc1", "MOZ-KAT6A (Homo sapiens, UniProt Q92794, A567V)", 4.55),
    ("COc1cccc(OC)c1S(=O)(=O)Nc1noc2ccc(OC(F)(F)F)cc12", "MOZ-KAT6A (Homo sapiens, UniProt Q92794, A567V)", 6.01),
]

P. COc1cccc2onc(NS(=O)(=O)c3ccc4c(c3)CCCC4)c12
Q. O=S(=O)(Nc1noc2cccc(Cl)c12)c1cccc2scnc12
R. CC(C)(C)c1ccc(S(=O)(=O)Nc2noc3cccc(Cl)c23)cc1
// smallest pIC50 at index 0, largest at the end I would appreciate it if you listed the labels in the requested order. R, P, Q
(R: 4.48, P: 4.73, Q: 5.72)

A. O=S(=O)(Nc1noc2cccc(Cl)c12)c1ccc2c(c1)OCCCO2
B. CCc1ccc(OC)c(S(=O)(=O)Nc2noc3cc(C4CC4)ccc23)c1
Short answer wanted: higher pIC50, A or B ? In your reply, give the label of the chosen option. B

====

tested on: acetylation of the histone H3K23 marker in U2OS cells; test: Histone H3 Lysine 23 Acetylation Biomarker Assay; type: cell-based; settings: Homo sapiens, 24 hours incubation, read-out: IC50, inhibition of histone H3K23 acetylation
pIC50: −log10 of the molar value.
Measured Attribute: pIC50

# Compound, pIC50
measured = [
    ("COCc1cc2onc(NS(=O)(=O)c3ccc(OC)cc3OC)c2cc1C [Example 166]", 6.40),
]

P. COCc1cc(OC)c2c(NS(=O)(=O)c3c(OC)cc(-c4ccccc4)cc3OC)noc2c1 [Example 91]
Q. CCc1ccc(OC)c(S(=O)(=O)Nc2noc3cccc(OC)c23)c1 [Example 116]
Select the item whose pIC50 value is smaller, choosing between P and Q . In your reply, give the label of the chosen option. Q

====

target: MOZ-KAT6A (Homo sapiens, UniProt Q92794, A567V); experiment: Acetyltransferase biochemical assay (AlphaScreen), KAT6A
Measured Attribute: IC50 (µM)

Observe how each entry below is paired with its result.
# Compound Structure, Unit Descriptor, IC50
data = [
    ("CCc1cccc(S(=O)(=O)Nc2noc3ccccc23)c1", "µM", 85.3),
    ("O=S(=O)(Nc1noc2cccc(Cl)c12)c1ccc(OC(F)(F)F)cc1", "µM", 21.8),
]

1. CCc1ccc(OC)c(S(=O)(=O)Nc2noc3cc(-c4ccccn4)ccc23)c1
2. CCc1ccc(OC)c(S(=O)(=O)Nc2noc3c(-c4cnn(C)c4)cccc23)c1
Select the item whose IC50 value is smaller, choosing between 1 and 2 . In your reply, give the label of the chosen option. 1
(1: 2.26 µM, 2: 12.6 µM)

====

biological target: UniProtKB Q92993
Where a name gives a salt, the structure may show the parent alone.
// reported IC50 for each item listed

Observe how each entry below is paired with its result.
# Compound, Result
rows = [
    ("Cc1ccc(S(=O)(=O)Nc2noc3cccc(Cl)c23)cc1", "> 125 µM"),
    ("COc1cc(Br)ccc1S(=O)(=O)Nc1noc2ccccc12", "> 125 µM"),
    ("COCc1cc(OC)c2c(NS(=O)(=O)c3c(OC)cccc3OC)noc2c1Cl", "> 125 µM"),
    ("COc1ccccc1S(=O)(=O)Nc1noc2ccccc12", "> 125 µM"),
    ("CCc1ccc(OC)c(S(=O)(=O)Nc2noc3c(-c4ccccc4)cccc23)c1", "7.54 µM"),
    ("CCc1ccc(OC)c(S(=O)(=O)Nc2noc3ccc(CN)cc23)c1 [Example 226, trifluoroacetate]", "80.3 µM"),
    ("O=S(=O)(Nc1noc2cccc(Cl)c12)c1ccc(F)c(F)c1F", "> 125 µM"),
]

Then there is this compound:
Tell me IC50 of `COc1cccc(OC)c1S(=O)(=O)Nc1noc2cc(-c3cccc(C#N)c3)cc(OC)c12` when tested on UniProtKB Q92993. 18.1 µM

====

molecular target: MOZ-KAT6A (Homo sapiens, UniProt Q92794, A567V); test: Acetyltransferase biochemical assay (AlphaScreen), KAT6A
pIC50: −log10 of the molar value.
Measured Attribute: pIC50

Observe how each entry below is paired with its result.
# Compound, pIC50
measured = [
    ("CNc1cccc(OC)c1S(=O)(=O)Nc1noc2cccc(OC)c12 [Example 214]", 4.44),
    ("CC(C)c1ccc(S(=O)(=O)Nc2noc3cccc(Cl)c23)cc1 [Example 22]", 5.28),
    ("CCc1ccc(OC)c(S(=O)(=O)Nc2noc3ccc(-c4cnn(C)c4)cc23)c1 [Example 237]", 5.31),
    ("O=S(=O)(Nc1noc2cccc(Cl)c12)c1ccccc1Oc1ccccc1 [Example 4]", 5.21),
]

I. CCc1ccc(OC)c(S(=O)(=O)Nc2noc3ccc(CNC(=O)OC)cc23)c1 [Example 227]
II. COC(=O)c1ccc(OC)c(S(=O)(=O)Nc2noc3ccccc23)c1 [Example 50]
III. COc1ccc(C(C)C)cc1S(=O)(=O)Nc1noc2ccccc12 [Example 49]
// smallest pIC50 at index 0, largest at the end I would appreciate it if you listed the labels in the requested order. II, I, III
(II: 3.91, I: 4.38, III: 5.09)
